# measurementTarget: TNF-α (Homo sapiens)
# Construct: purchased Abcam plc, Cambridge, Mass
# Sequence (P01375 77-233 limits assumed): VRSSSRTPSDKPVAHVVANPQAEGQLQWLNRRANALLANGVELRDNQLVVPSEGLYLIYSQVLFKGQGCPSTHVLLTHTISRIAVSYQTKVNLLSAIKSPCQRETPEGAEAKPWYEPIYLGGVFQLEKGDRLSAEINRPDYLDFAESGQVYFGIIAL
# assayDetails: Surface plasmon resonance (SPR) binding assay (Test Method A), TNF-α
# testContext: CK-linker modified peptide immobilized on CM5 chip, Biacore 3000, 25° C., TNF-α 62.5-1000 nM, 1-to-1 Langmuir fit; read-out: binding affinity (KD) for TNF-α
recordedEndpoint: Kd (µM)

- Ac-WFEWPYWEMNVPDVWN-NH2 [SEQ ID NO: 1, WFEWPYWEMNVPDVWN]: 75

* * *

# measurementTarget: EGF (Homo sapiens, UniProt P01133)
# Sequence (P01133 971-1023 limits assumed): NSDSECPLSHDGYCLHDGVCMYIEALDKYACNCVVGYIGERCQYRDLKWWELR
# assayDetails: biochemical
# testContext: binding affinity (KD) for EGF, CK-linker modified peptide immobilized on CM5 chip, Biacore 3000, 25° C., EGF 62.5-1000 nM, 1-to-1 Langmuir fit
recordedEndpoint: Kd (nM)

• Ac-WFEWPYWEMNVPDVWN-NH2 [SEQ ID NO: 1, WFEWPYWEMNVPDVWN] = 80

Cited source: patent US11254716B2
